target_desc: muscarinic receptors (smooth muscle of the fundus of the stomach)
method: Binding to muscarinic receptors, 3H-N-methylscopolamine displacement, smooth muscle of fundus of stomach
condition_description: smooth muscle of fundus homogenate 1:100; 0.3 n molar 3H-N-methylscopolamine; 30° C., 45 minutes; pH 7.4; read-out: Receptor binding tests IC50, Smooth Muscle Fundus of Stomach
value_type: IC50 (nM)
Give the quantity in nM, number only.

Looking for the measured IC50 of CN1CCC(NC(=O)N2c3ccccc3NC(=O)c3ccccc32)CC1 [B] , can you help?
100

Looking for the measured IC50 of CN1CCN(NC(=O)N2c3ccccc3NC(=O)c3ccccc32)CC1 [C] , can you help?
90

Looking for the measured IC50 of CN1CCC(OC(=O)N2c3ccccc3NC(=O)c3ccccc32)CC1 [A] , can you help?
60

----------
method: Testing for mydriasis
Parameters: species or system rats
condition_description: in vivo, iv; rat; pupil size observed for 10 minutes; blind test
For each of the compounds below, state its ED50 at 10 min.
Reply with the number, then its unit.

Looking for the measured ED50 at 10 min of CN1CCN(NC(=O)N2c3ccccc3NC(=O)c3ccccc32)CC1 , can you help?
0.0825 mg/kg

Looking for the measured ED50 at 10 min of CN1CCC(OC(=O)N2c3ccccc3NC(=O)c3ccccc32)CC1 , can you help?
0.071 mg/kg

Looking for the measured ED50 at 10 min of CN1CCC(NC(=O)N2c3ccccc3NC(=O)c3ccccc32)CC1 , can you help?
0.023 mg/kg

----------
target_desc: muscarinic receptors (cerebral cortex)
method: Binding to muscarinic receptors, 3H-N-methylscopolamine displacement, cerebral cortex
condition_description: cerebral cortex homogenate 1:3000; 0.3 n molar 3H-N-methylscopolamine; 30° C., 45 minutes; pH 7.4; read-out: Receptor binding tests IC50, Cortex
value_type: pIC50
Kindly note that pIC50 refers to -log10 of the concentration in mol/L and answer with the value alone.

Looking for the measured pIC50 of CN1CCC(OC(=O)N2c3ccccc3NC(=O)c3ccccc32)CC1 [A] , can you help?
8.26

Looking for the measured pIC50 of CN1CCN(NC(=O)N2c3ccccc3NC(=O)c3ccccc32)CC1 [C] , can you help?
7.74

Looking for the measured pIC50 of CN1CCC(NC(=O)N2c3ccccc3NC(=O)c3ccccc32)CC1 [B] , can you help?
7.89
